Source of measurements: patent US20240270821A1

# ASSAYED SYSTEM: hGIPR (Homo sapiens)
# Sequence (P48546 22-466): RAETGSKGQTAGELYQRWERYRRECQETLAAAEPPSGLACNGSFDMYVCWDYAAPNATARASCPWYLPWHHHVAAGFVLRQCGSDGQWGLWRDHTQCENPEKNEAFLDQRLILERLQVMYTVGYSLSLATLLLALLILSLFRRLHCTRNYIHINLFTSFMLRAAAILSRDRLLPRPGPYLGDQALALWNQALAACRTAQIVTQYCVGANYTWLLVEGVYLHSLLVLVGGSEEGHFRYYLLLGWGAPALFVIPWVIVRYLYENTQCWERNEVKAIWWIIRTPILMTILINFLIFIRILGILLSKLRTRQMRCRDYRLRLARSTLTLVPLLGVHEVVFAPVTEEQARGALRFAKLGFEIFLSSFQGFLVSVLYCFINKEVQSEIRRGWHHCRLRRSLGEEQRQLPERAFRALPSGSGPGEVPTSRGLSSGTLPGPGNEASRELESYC
# MEASUREMENT DESCRIPTION: Functional cAMP activity in the presence of 1% HSA
# Assay type: cell-based
# CONDITIONS: read-out: cAMP Rel EC50, hGIPR
Starred links: 1 amine or outer side, 2 acyl side, 3 side chain; linkers in the order of their positions; H or OH if unused. Non-standard residues stand in square brackets, D forms with d. Groups on a side chain read outwards from the residue. No end group written: not given here. *: point of attachment. C20 diacid = O=C(O)CCCCCCCCCCCCCCCCCCC(=O)*; C18 diacid = O=C(O)CCCCCCCCCCCCCCCCC(=O)*; αMePhe(2-F) = C[C@](N)(Cc1ccccc1F)C(=O)O; γGlu = O=C(O)[C@H](CCC(=O)[*:2])N[*:1]; αMe4Pal = C[C@](N)(Cc1ccncc1)C(=O)O; αMeY = C[C@](N)(Cc1ccc(O)cc1)C(=O)O; αMeF = C[C@](N)(Cc1ccccc1)C(=O)O; 4Pal = N[C@@H](Cc1ccncc1)C(=O)O; αMeL = CC(C)C[C@](C)(N)C(=O)O; αMeS = C[C@](N)(CO)C(=O)O; Orn = NCCC[C@H](N)C(=O)O; Dap = NC[C@H](N)C(=O)O; AEEA = NCCOCCOCC(=O)O; Aib = CC(C)(N)C(=O)O
// thresholds for EC50 classes: low end: < 10 nM; middle: ≥ 10 nM and < 40 nM; high end: ≥ 40 nM

SUBSTANCE	ASSIGNED CLASS
H-Y[Aib]QGT[αMePhe(2-F)]TSD[4Pal][αMeS]I[αMeL]LD[Orn]K([γGlu-γGlu-C18 diacid])AQ[Aib][Orn]FI[dE][αMeY]LTEGGPSSGEPPPSGTE-NH2 [Example 542]	low end
Y[Aib]QGT[αMePhe(2-F)]TSDYSKLLDKIAQK([AEEA-γGlu-C20 diacid])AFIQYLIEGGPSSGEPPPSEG-NH2 [Example 338]	middle
Y[Aib]QGT[αMeF]TSD[4Pal][αMeS]I[αMeL]LD[Orn]K([AEEA-γGlu-C18 diacid])AQ[αMe4Pal]EFI[dE][αMeY]LIEGGPSSGEPPPSGE-NH2 [Example 1165]	low end
H-Y[Aib]QGT[αMePhe(2-F)]TSDYSILLDKK([AEEA-γGlu-C18 diacid])AQ[Aib]AFIE[4Pal]LEEGGPSSGAPPPSEG-NH2 [Example 411]	middle
H-Y[Aib]QGTFTSDFS[Orn][αMeL]LDKK([AEEA-γGlu-C18 diacid])AQ[Aib]AFIEYLLEGGHSSGEPPPGGS-NH2 [Example 164]	high end
H-Y[Aib]QGTFTSD[4Pal]S[Orn][αMeL]LDKK([AEEA-γGlu-C18 diacid])AQ[αMe4Pal]AFIE[αMe4Pal]LIEGGPSSGAPPPSGS-NH2 [Example 949]	middle
H-Y[Aib]QGT[αMePhe(2-F)]TSD[4Pal]SI[αMeL]LD[Orn]K([AEEA-γGlu-C18 diacid])AQ[Aib][Orn]FIEYLLEGGPSSGEPPPEEG-NH2 [Example 494]	low end
H-Y[Aib]QGTFTSDFSK[αMeL]LDKK([AEEA-γGlu-C20 diacid])AQ[Aib]AFIEYLLEGGPSSGEPPPEEG-NH2 [Example 35]	high end
H-Y[Aib]QGTFTSDFS[Dap][αMeL]LDKK([AEEA-γGlu-C18 diacid])AQ[Aib]AFIEYLLE[Aib]GPSSGAPPPSGS-NH2 [Example 134]	middle
H-Y[Aib]QGTFTSDYSI[αMeL]LDKQAAK([AEEA-AEEA-γGlu-C20 diacid])QFVEWLIA[Aib]GPSSGEPPPGSG-NH2 [Example 335]	high end
